- target system: Hepatitis C virus serine protease, NS3/NS4A (Hepatitis C virus, UniProt A3EZI9+D2K2A8)
- procedure details: Inhibition of HCV GT-1a NS3/4a protease using Ac-DE-D(Edans)-EE-Abu-c-[COO]-AS-K(Dabcy1)-NH2 preincubated for 1 hr followed by substrate addition
- Format: protein complex, Hepatitis C virus subtype 1a
Recorded pKi values for a group of compounds are listed next.
Recall that pKi is obtained by taking minus log10 of the concentration measured in molar.

{"compound": "COc1ccc2nc(C)c(O[C@@H]3C[C@H]4C(=O)N[C@]5(C(=O)NS(=O)(=O)C6(C)CC6)C[C@H]5/C=C/CCCCC[C@H](NC(=O)OC5(C)CCC5)C(=O)N4C3)nc2c1", "target system": "Hepatitis C virus serine protease, NS3/NS4A (Hepatitis C virus, UniProt A3EZI9+D2K2A8)", "experimental readout": "pKi", "quantitative readout": 8.85}

Measured pKi of COc1ccc2nc(C)c(O[C@@H]3C[C@H]4C(=O)N[C@]5(C(=O)NS(=O)(=O)C6(C)CC6)C[C@H]5/C=C/CCCCC[C@H](NC(=O)OC5(C(F)(F)F)CCC5)C(=O)N4C3)nc2c1 : 8.82

Measured pKi of COc1ccc2nc(O[C@@H]3C[C@H]4C(=O)N[C@]5(C(=O)NS(=O)(=O)C6(C)CC6)C[C@H]5/C=C/CCCCC[C@H](NC(=O)O[C@@H](C)C(C)C)C(=O)N4C3)c(C(F)(F)F)nc2c1 : 8.21

---

- target system: Hepatitis C virus serine protease, NS3/NS4A (Hepatitis C virus, UniProt A3EZI9+D2K2A8)
- procedure details: Inhibition of HCV GT-1a NS3/4a protease using Ac-DE-D(Edans)-EE-Abu-c-[COO]-AS-K(Dabcy1)-NH2 preincubated for 1 hr followed by substrate addition
- Format: protein complex, Hepatitis C virus subtype 1a
Recorded pKi values for a group of molecules are listed next.
Recall that pKi is obtained by taking minus log10 of the concentration measured in molar.

Examples from the recorded data:
{"smiles representation": "COc1ccc2nc(C)c(O[C@@H]3C[C@H]4C(=O)N[C@]5(C(=O)NS(=O)(=O)C6(C)CC6)C[C@H]5/C=C/CCCCC[C@H](NC(=O)O[C@@H](C)C(C)C)C(=O)N4C3)nc2c1", "pKi": 8.72}
{"smiles representation": "COc1ccc2nc(O[C@@H]3C[C@H]4C(=O)N[C@]5(C(=O)NS(=O)(=O)C6(C)CC6)C[C@H]5/C=C/CCCCC[C@H](NC(=O)OC5CCC5)C(=O)N4C3)c(C(F)(F)F)nc2c1", "pKi": 8.07}
{"smiles representation": "COc1ccc2nc(C)c(O[C@@H]3C[C@H]4C(=O)N[C@]5(C(=O)NS(=O)(=O)C6(C)CC6)C[C@H]5/C=C/CCCCC[C@H](NC(=O)OC5(C(F)(F)F)CCCC5)C(=O)N4C3)nc2c1", "pKi": 8.89}

Measured pKi of COc1ccc2nc(O[C@@H]3C[C@H]4C(=O)N[C@]5(C(=O)NS(=O)(=O)C6(C)CC6)C[C@H]5/C=C/CCCCC[C@H](NC(=O)OC5CC5)C(=O)N4C3)c(C(F)(F)F)nc2c1 : 7.85

Measured pKi of CCC1(OC(=O)N[C@H]2CCCCC/C=C/[C@@H]3C[C@@]3(C(=O)NS(=O)(=O)C3(C)CC3)NC(=O)[C@@H]3C[C@@H](Oc4nc5cc(OC)ccc5nc4C)CN3C2=O)CCCC1 : 8.89

---

- System: Hepatitis C virus
- procedure details: Antiviral activity against HCV genotype 1b harboring D168A mutant infected in human Huh7 cells incubated for 96 hrs by luciferase assay
- Format: functional, organism-based, Hepacivirus hominis
- condition set: subtype 1b, Huh-7, 96 h
// assign Criterion met if EC50 falls strictly below 10 nM, else Criterion not met (ties count as Criterion not met)

Known results for molecules:
{"smiles representation": "CC(C)(C)[C@@H]1NC(=O)O[C@@H]2CCC[C@H]2OC/C=C/C(F)(F)c2nc3ccccc3nc2O[C@@H]2C[C@@H](C(=O)N[C@]3(C(=O)NS(=O)(=O)C4(C)CC4)C[C@H]3C(F)F)N(C2)C1=O", "target system": "Hepatitis C virus", "assigned class": "Criterion met"}
{"smiles representation": "COc1ccc2nc(O[C@@H]3C[C@H]4C(=O)N[C@]5(C(=O)NS(=O)(=O)C6(C)CC6)C[C@H]5/C=C/CCCCC[C@H](NC(=O)OC(C)(C)C(F)(F)F)C(=O)N4C3)c(C(F)(F)F)nc2c1", "target system": "Hepatitis C virus", "assigned class": "Criterion met"}
{"smiles representation": "CCC(C)(C)OC(=O)N[C@H]1CCCCC/C=C/[C@@H]2C[C@@]2(C(=O)NS(=O)(=O)C2(C)CC2)NC(=O)[C@@H]2C[C@@H](Oc3nc4ccc(OC)cc4nc3C(F)(F)F)CN2C1=O", "target system": "Hepatitis C virus", "assigned class": "Criterion not met"}
{"smiles representation": "COc1ccc2nc(C)c(O[C@@H]3C[C@H]4C(=O)N[C@]5(C(=O)NS(=O)(=O)C6(C)CC6)C[C@H]5/C=C/CCCCC[C@H](NC(=O)OC5CC(F)(F)C5)C(=O)N4C3)nc2c1", "target system": "Hepatitis C virus", "assigned class": "Criterion met"}
{"smiles representation": "COc1ccc2nc(O[C@@H]3C[C@H]4C(=O)N[C@]5(C(=O)NS(=O)(=O)C6(C)CC6)C[C@H]5/C=C/CCCCC[C@H](NC(=O)OC5CCC5)C(=O)N4C3)c(C(F)(F)F)nc2c1", "target system": "Hepatitis C virus", "assigned class": "Criterion not met"}

Request: Does the reported EC50 of the following molecule sit strictly below 10 nM? COc1ccc2nc(O[C@@H]3C[C@H]4C(=O)N[C@]5(C(=O)NS(=O)(=O)C6(C)CC6)C[C@H]5/C=C/CCCCC[C@H](NC(=O)OCC(C)(C)C)C(=O)N4C3)c(C(F)(F)F)nc2c1
Response: Criterion not met

Request: Does the reported EC50 of the following molecule sit strictly below 10 nM? COc1ccc2nc(C)c(O[C@@H]3C[C@H]4C(=O)N[C@]5(C(=O)NS(=O)(=O)C6(C)CC6)C[C@H]5/C=C/CCCCC[C@H](NC(=O)OCC5(C(F)(F)F)CC5)C(=O)N4C3)nc2c1
Response: Criterion met

---

- System: Hepatitis C virus
- procedure details: Antiviral activity against HCV genotype 1b harboring D168A mutant infected in human Huh7 cells incubated for 96 hrs by luciferase assay
- Type: functional, organism-based, Hepacivirus hominis
- condition set: subtype 1b, Huh-7, 96 h
experimental readout: EC50

Examples from the recorded data:
{"compound": "COc1ccc2nc(O[C@@H]3C[C@H]4C(=O)N[C@]5(C(=O)NS(=O)(=O)C6(C)CC6)C[C@H]5/C=C/CCCCC[C@H](NC(=O)OC5(C)CC5)C(=O)N4C3)c(C(F)(F)F)nc2c1", "result": "14 nM"}
{"compound": "COc1ccc2nc(O[C@@H]3C[C@H]4C(=O)N[C@]5(C(=O)NS(=O)(=O)C6(C)CC6)C[C@H]5/C=C/CCCCC[C@H](NC(=O)OC5(C(F)(F)F)CCC5)C(=O)N4C3)c(C(F)(F)F)nc2c1", "result": "7.8 nM"}
{"compound": "COc1ccc2nc(C)c(O[C@@H]3C[C@H]4C(=O)N[C@]5(C(=O)NS(=O)(=O)C6(C)CC6)C[C@H]5/C=C/CCCCC[C@H](NC(=O)O[C@@H](C)C5CC5)C(=O)N4C3)nc2c1", "result": "10 nM"}

Measured EC50 of COc1ccc2nc(O[C@@H]3C[C@H]4C(=O)N[C@]5(C(=O)NS(=O)(=O)C6(C)CC6)C[C@H]5/C=C/CCCCC[C@H](NC(=O)OCC5(C(F)(F)F)CC5)C(=O)N4C3)c(C(F)(F)F)nc2c1 : 4.6 nM

Measured EC50 of COc1ccc2nc(O[C@@H]3C[C@H]4C(=O)N[C@]5(C(=O)NS(=O)(=O)C6(C)CC6)C[C@H]5/C=C/CCCCC[C@H](NC(=O)OC5C[C@@H]6C[C@@H]6C5)C(=O)N4C3)c(C(F)(F)F)nc2c1 (stereo not given in full) : 2.1 nM

---

Recorded AUC(0-t) values for a group of compounds are listed next.
- procedure details: AUC(0 to 24 hrs) in Sprague-Dawley rat at 5 mg/kg, iv measured after 0.25 to 24 hrs by LC-MS/MS analysis
- Format: ADME, organism-based
- Design: route intravenous, dose 5 mg/kg, time 0.25-24 hrs
- condition set: in vivo
Quick note: give the figure in µM·h, leave out the unit.

{"smiles representation": "COc1ccc2nc(C)c(O[C@@H]3C[C@H]4C(=O)N[C@]5(C(=O)NS(=O)(=O)C6(C)CC6)C[C@H]5/C=C/CCCCC[C@H](NC(=O)OC(C)(C)C)C(=O)N4C3)nc2c1", "unit abbreviation": "µM·h", "AUC(0-t)": 2.2}

We now examine a further compound.
Measured AUC(0-t) of COc1ccc2nc(C)c(O[C@@H]3C[C@H]4C(=O)N[C@]5(C(=O)NS(=O)(=O)C6(C)CC6)C[C@H]5/C=C/CCCCC[C@H](NC(=O)OC5(C(F)(F)F)CCCC5)C(=O)N4C3)nc2c1 : 2.7
